The reported measurements were obtained from patent US20080255046A1.

Biological target: T1, rhesus monkey Y2 receptor (rhesus monkey, UniProt Q9GK74 1-381)
T1 construct: whole, on cells; Transiently expressed in COS-7 cells together with the chimeric G protein Gqi5 for the potency assay; also called rhY2; rhesus monkey NPY-Receptor Y2
T1 sequence (looked up): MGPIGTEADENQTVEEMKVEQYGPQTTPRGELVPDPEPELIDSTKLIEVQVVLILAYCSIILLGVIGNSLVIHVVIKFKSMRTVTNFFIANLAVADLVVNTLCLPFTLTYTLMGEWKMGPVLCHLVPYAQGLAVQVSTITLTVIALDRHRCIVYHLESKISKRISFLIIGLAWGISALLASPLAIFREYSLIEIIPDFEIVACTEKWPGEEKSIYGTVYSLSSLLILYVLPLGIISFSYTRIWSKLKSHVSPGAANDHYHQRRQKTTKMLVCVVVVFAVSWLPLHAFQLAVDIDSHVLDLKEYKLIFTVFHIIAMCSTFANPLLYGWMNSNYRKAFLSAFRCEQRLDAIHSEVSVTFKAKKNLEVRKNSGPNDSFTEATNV
Experiment: competition binding with 125I-PYY on CHO cells stably expressing rhesus monkey Y2
Where no end group is shown, it is not given here.
Reported pKi by item:
Please treat pKi as minus the base-10 logarithm of the molar concentration.

binder: APLKPVYPGDNATPEQLAQYAADLRRYINTLTRQRY-NH2 (Human PP with Lys at 4, Leu at 17, Thr at 30 and Gln at 34; also called [Lys4, Leu17, Thr30, Gln34]-PP; peptide (ii)) [[Lys4,Leu17,Thr30,Gln34]hPP]
result: 9.33

Read the next record carefully.
Request: # query: pKi of entry APLKPVYPGDNATPEQLAQYAADLRRYINSLTRQRY-NH2 (also called [Lys4, Leu17, Ser30, Gln34]-PP; peptide (i)) [[Lys4,Leu17,Ser30,Gln34]hPP]
Response: 9.29
